Known self-splicing fitness (ln) of a selection of sequences
Experiment: self-splicing fitness, log relative to wild type (ln ratio); higher = more splicing; Tetrahymena group I intron in knt gene, E. coli kanamycin selection, DiMSum; sequences stand for … in CUCUCU…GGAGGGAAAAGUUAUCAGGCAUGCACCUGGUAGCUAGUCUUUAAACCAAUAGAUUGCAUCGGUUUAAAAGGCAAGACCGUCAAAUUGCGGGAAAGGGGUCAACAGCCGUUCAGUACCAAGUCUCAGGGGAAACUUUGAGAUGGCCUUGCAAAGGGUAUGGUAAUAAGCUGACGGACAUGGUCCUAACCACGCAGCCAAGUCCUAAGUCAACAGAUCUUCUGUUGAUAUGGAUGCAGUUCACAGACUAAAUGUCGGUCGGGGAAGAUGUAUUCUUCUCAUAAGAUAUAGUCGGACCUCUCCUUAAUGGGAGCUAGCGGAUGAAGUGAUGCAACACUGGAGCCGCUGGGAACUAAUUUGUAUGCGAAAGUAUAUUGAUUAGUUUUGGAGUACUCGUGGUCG;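 also: selection with 25 µg/mL kanamycin versus none on LB agar overnight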
Conditions: 30 °C
Just the number, please.

Find the measured self-splicing fitness (ln) of "AUCGAGCAAUAUUACGUUGC" and report it.
-2.95

Find the measured self-splicing fitness (ln) of "GGCAAGCAAUAUUACGCUGG" and report it.
-3.31
